The following compounds are listed with their measured melting point values.
reported_property: melting point

compound | endpoint_value
CCCCN(CCCC)c1ccc(C=Cc2cc(C)c(C=CC3=C(C#N)C(=C(C#N)C#N)OC3(C)C(F)(F)F)cc2C)c(OC)c1 (centres undefined) | 205 to 207 °C
CCNC(=O)c1cccc(-c2cccc3cc(Cc4cccc(C(F)(F)F)c4)sc23)c1 | 122 to 123 °C
CC(=O)SCC(=O)c1ccc(Cl)c(S(N)(=O)=O)c1 | 137 °C
CCOC(=O)NCc1ccc2[nH]cc(CC#N)c2c1 | 104 to 106 °C
CCCc1nc(Cl)c(C=O)n1Cc1ccc(-c2ccccc2-c2nnn[nH]2)cc1 | 165 to 167 °C
COc1ccc2c3c(c(=O)oc2c1)CN(Cc1ccc(C)cc1)CC3 | 147 to 149 °C
CCOC(=O)c1nc(Cc2ccccc2[N+](=O)[O-])n[nH]1 | 135 to 140 °C
CCCCCCCCOc1cc(OC)ccc1O | 36 to 38 °C
CCOC(=O)C1CCC(C(=O)OCC)N1C(=O)C(N)Cc1c[nH]c2ccccc12 (centres undefined) | 144 to 149 °C
Cn1c(C(F)(F)F)cc(=O)n(-c2ccc(Cl)c(CO)c2)c1=O | 192 to 194 °C
CCCc1c(OCCCOc2cc(NC(=O)C(=O)O)c(C)cc2Cl)ccc(C(C)=O)c1O | 188 to 189 °C
Cc1ccc(S(=O)(=O)N2[C@@H](Cc3nc(C)no3)CC[C@H]2c2ccc(F)cc2)cc1 (racemic) | 103 °C
N#Cc1cccc(-c2ccc(O)c(C=O)c2)c1 | 139 to 140 °C
CCC(Oc1ccc(F)cc1)C(=O)OC1CC(O)C=C2C=CC(C)C(CCC3CC(O)CC(=O)O3)C21 (mixture of isomers) | 149 to 150 °C
CCN(CC)C(=O)N1CCc2cc(S(=O)(=O)N3C(=O)C(NCCC4CCN(C(=O)OC(C)(C)C)CC4)(c4ccccc4Cl)c4cc(Cl)ccc43)ccc21 (centres undefined) | 139 °C
CCNC(=O)c1ccc(F)cc1 | 73.2 to 76.3 °C
CC(C)(C)c1cc(Br)c(O)c(C#N)c1 | 69 to 71 °C
COc1cc2ccc(CO)c(-c3ccnc(Br)c3)c2cc1OC | 150 to 153 °C
C#Cc1cnc2c(C)cc(OC(SC)C(=O)NC(C)(C#C)COC)cc2c1 (centres undefined) | 108 to 109 °C
CC(=O)COC(=O)C=CC(=O)OCC(C)=O | 121 to 123 °C
CC(C)NCc1ccc(COc2cccc3c2CN(C2CCC(=O)NC2=O)C3=O)cc1 (centres undefined) | 165 to 167 °C
Nc1nnc(-c2cc3c(Oc4ccc(Cl)cc4)cncc3s2)[nH]1 | > 270 °C
O=Cn1cc(Cl)c(-c2cccc(Cl)c2Cl)c1 | 130 to 131 °C
Cc1cc(=O)[nH]c2cc(O)cc(O)c12 | > 300 °C
